The reported measurements were obtained from PubChem BioAssay AID1159580.

assay: chemical genetic growth profiling, strain panel (AID 1159580);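 note: tested at 20 µM; growth read once vehicle control cultures reached saturation at 30 °C; 1 = growth at the plate median or of vehicle wells; lower values mean less growth of the strain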; details: S. cerevisiae deletion strains, growth OD, locus YAL021C, strain ccr4, active compounds read low
Screen size: about 5,500 compounds; about 2,000 (36%) were called active. Roughly 18% stayed inconclusive and do not appear here. Some of the results follow.
Would you mind telling me the reported normalized growth of each entry?
Respond with the number and no other words.

Recorded normalized growth (compound NS(=O)(=O)c1cc2c(cc1Cl)NC(CSCc1ccccc1)=NS2(=O)=O ): 0.986

Recorded normalized growth (compound N[C@@H](CCC(=O)N[C@@H](CS)C(=O)NCC(=O)O)C(=O)O ): 1

Recorded normalized growth (compound O=P1(NCCCl)OCCCN1CCCl (stereo not drawn) ): 0.964

Recorded normalized growth (compound CCN1CCN(C(=O)NC(C(=O)N[C@@H]2C(=O)N3[C@@H]2SC(C)(C)[C@@H]3C(=O)O)c2ccccc2)C(=O)C1=O (stereo partly drawn) ): 1

Recorded normalized growth (compound CS(=O)(=O)Nc1ccc([N+](=O)[O-])cc1Oc1ccccc1 ): 0.991

Recorded normalized growth (compound CN(C)[C@@H]1C(=O)C(C(N)=O)=C(O)[C@@]2(O)C(=O)C3=C(O)c4c(O)cccc4[C@@](C)(O)[C@H]3[C@H](O)[C@@H]12 ): 1.02

Recorded normalized growth (compound C=C1c2c(Cl)ccc(O)c2C(O)=C2C(=O)[C@]3(O)C(O)=C(C(N)=O)C(=O)[C@@H](N(C)C)[C@@H]3[C@@H](O)[C@H]12 ): 0.964

Recorded normalized growth (compound CN(C)[C@@H]1C(=O)C(C(=O)NCN2CCCC2)=C(O)[C@@]2(O)C(=O)C3=C(O)c4c(O)cccc4[C@@](C)(O)[C@H]3C[C@@H]12 ): 0.935

###

Would you mind telling me the reported normalized growth of each entry?
test: chemical genetic growth profiling, strain panel (AID 1159580); conditions: S. cerevisiae deletion strains, growth OD, locus YOR001W, strain rrp6, active compounds read low
The whole screen tested about 5,500 compounds, of which about 2,000 (36%) were called active. Roughly 18% stayed inconclusive and do not appear here. The list shows a part of the results.
Respond with the number and no other words.

Recorded normalized growth (molecule OC[C@H]1O[C@@](CO)(O[C@@H]2O[C@H](CO)[C@@H](O)[C@H](O)[C@H]2O)[C@@H](O[C@@H]2O[C@H](CO)[C@@H](O)[C@H](O)[C@H]2O)[C@@H]1O ): 1

Recorded normalized growth (molecule OC[C@H]1O[C@@H](O[C@@H]2[C@@H](CO)O[C@](O)(CO)[C@H]2O)[C@H](O)[C@@H](O)[C@H]1O ): 1

Recorded normalized growth (molecule OC[C@H]1O[C@@H](O[C@H]2[C@H](O)[C@@H](O)[C@@H](O)O[C@@H]2CO)[C@H](O)[C@@H](O)[C@@H]1O ): 0.988

Recorded normalized growth (molecule CCOC(=O)NNc1nncc2ccccc12 ): 0.97

Recorded normalized growth (molecule O=C1NC(O)=NC1(c1ccccc1)c1ccccc1 ): 1

###

experiment: chemical genetic growth profiling, strain panel (AID 1159580); conditions: S. cerevisiae deletion strains, growth OD, locus YGR229C, strain SMI1, active compounds read low
Hit rate of the full screen: of about 5,500 compounds, about 2,000 (36%) were called active. Roughly 18% stayed inconclusive and do not appear here. This is one part of the list.
EXPERIMENTAL_READOUT: normalized growth
Respond with the number and no other words.

Recorded normalized growth (compound CC1(C)CCC=[N+]1[O-] ): 1.05

Recorded normalized growth (compound CC(=O)OC1CCC2(C)C(CC(OC(C)=O)C3(C)C4=CC(=O)OC(c5ccoc5)C4(C)CCC23)C1(C)C (stereo not given) ): 0.986

Recorded normalized growth (compound CC1=CC(=O)c2ccccc2C1=O ): 0.0566

Recorded normalized growth (compound NC(=S)CSc1ccccc1 ): 0.991

Recorded normalized growth (compound CC(=O)O[C@H]1CC[C@@]2(C)C(C[C@@H](OC(C)=O)[C@@]3(C)C4=CC(=O)O[C@@H](c5ccoc5)[C@]4(C)CCC23)C1(C)C (stereo not given in full) ): 1

Recorded normalized growth (compound CCN(CC)CCOCCOC(=O)C1(c2ccccc2)CCCC1 ): 0.979

Recorded normalized growth (compound Cc1ccc(-c2nn[nH]n2)cc1Cl ): 0.984

Recorded normalized growth (compound CC(=O)Oc1c(Cl)c(C)c2c(c1Cl)OC(=O)c1c(C)c(Cl)c(OC(C)=O)c(Cl)c1O2 ): 0.65

Recorded normalized growth (compound CS(=O)(=O)Nc1ccc([N+](=O)[O-])cc1Oc1ccccc1 ): 0.971

Recorded normalized growth (compound CC(=O)O[C@@H]1C=C[C@@]2(C)C(C[C@@H](OC(C)=O)[C@@]3(C)C4=CC(=O)O[C@@H](c5ccoc5)[C@]4(C)CCC23)C1(C)C (stereo not given in full) ): 0.98

###

test: chemical genetic growth profiling, strain panel (AID 1159580);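 note: tested at 20 µM; growth read once vehicle control cultures reached saturation at 30 °C; 1 = growth at the plate median or of vehicle wells; lower values mean less growth of the strain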; details: S. cerevisiae deletion strains, growth OD, locus YGR252W, strain gcn5, active compounds read low
Among all 5,500 compounds or so, about 2,000 (36%) were called active. Inconclusive results (about 18%) are left out. Some of the results follow.
EXPERIMENTAL_READOUT: normalized growth
Respond with the number and no other words.

Recorded normalized growth (molecule COc1c(C)c2c(c(C)c1Cl)Oc1c(Cl)c(OC)c(Cl)c(C)c1C(=O)O2 ): 1.05

Recorded normalized growth (molecule CC(C)CCCC(C)C1CCC2C3CC(=O)[C@H]4C[C@@H](O)CC[C@]4(C)C3CC[C@]12C (some centres undefined) ): 1.06

Recorded normalized growth (molecule CC(C)CCCC(C)C1CCC2C3CC[C@H]4C[C@@H](O)CC[C@]4(C)C3CC[C@]12C (some centres undefined) ): 0.96

Recorded normalized growth (molecule COC(=O)c1c(C)c2c(c(C)c1O)OC(=O)c1c(C)c(Cl)c(O)c(Cl)c1O2 ): 0.927

Recorded normalized growth (molecule CCN1CCN(C(=O)NC(C(=O)N[C@@H]2C(=O)N3[C@@H]2SC(C)(C)[C@@H]3C(=O)O)c2ccccc2)C(=O)C1=O (some centres undefined) ): 1.01

Recorded normalized growth (molecule CC(C)CCCC(C)C1CCC2C3C[C@@H](O)[C@@]4(O)C[C@@H](O)CC[C@]4(C)C3CC[C@]12C (some centres undefined) ): 0.993

Recorded normalized growth (molecule CC(C)CCCC(C)C1CCC2C3=CC[C@H]4C[C@@H](O)CC[C@]4(C)C3CC[C@@]21C (some centres undefined) ): 0.944

Recorded normalized growth (molecule CC(C)CCCC(C)[C@H]1CCC2C3CC=C4C[C@@H](O)CC[C@]4(C)C3CC[C@@]21C (some centres undefined) ): 0.978

Recorded normalized growth (molecule COC(=O)c1c(OC)cc2c(c1C)Oc1c(Cl)c(OC(C)=O)c(Cl)c(C)c1C(=O)O2 ): 1.11

###

test: chemical genetic growth profiling, strain panel (AID 1159580);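 note: tested at 20 µM; growth read once vehicle control cultures reached saturation at 30 °C; 1 = growth at the plate median or of vehicle wells; lower values mean less growth of the strain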; conditions: S. cerevisiae deletion strains, growth OD, locus YJL166W, strain qcr8, active compounds read low
Out of some 5,500 compounds screened, about 2,000 (36%) were called active. About 18% were inconclusive and are not listed. This is one part of the list.
Would you mind telling me the reported normalized growth of each entry?

Recorded normalized growth (compound CCC(C)C(=O)OC1[C@@H]2CC3=C4CC(=O)O[C@@H](c5ccoc5)[C@]4(C)CCC3[C@@](C)(C2=O)[C@@H](CC(=O)OC)C1(C)C (stereo not given in full) ): 1.01 (inactive)

Recorded normalized growth (compound C/C=C\C1=C(C(=O)O)N2C(=O)C(NC(=O)C(N)c3ccc(O)cc3)C2SC1 (stereo not given) ): 1 (inactive)

Recorded normalized growth (compound Cc1scc2c1N(C(=O)CN1CCN(C)CC1)c1ccccc1NC2=O ): 0.949 (inactive)

Recorded normalized growth (compound CNNC ): 0.997 (inactive)

Recorded normalized growth (compound COc1cc(C/C=C/c2ccccc2)c(OC)cc1O ): 0.955 (inactive)

###

assay: chemical genetic growth profiling, strain panel (AID 1159580);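 note: tested at 20 µM; growth read once vehicle control cultures reached saturation at 30 °C; 1 = growth at the plate median or of vehicle wells; lower values mean less growth of the strain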; settings: S. cerevisiae deletion strains, growth OD, locus YDR159W, strain sac3, active compounds read low
The campaign covered roughly 5,500 compounds. About 2,000 (36%) were called active. Roughly 18% stayed inconclusive and do not appear here. Some of the results follow.
Define the label as satisfied when normalized growth is strictly less than 1 and as not satisfied in all remaining cases.

Item CC(=O)OCC(=O)[C@@]1(O)[C@H](C)CC2C3CCC4=CC(=O)C=C[C@]4(C)[C@@]3(F)[C@@H](O)C[C@@]21C (stereo partly specified) : normalized growth beneath 1, strictly?
satisfied

Item CC(C)CCCC(C)[C@H]1CCC2C3CC=C4C[C@@H](O)CC[C@]4(C)C3CC[C@@]21C (stereo partly specified) : normalized growth beneath 1, strictly?
satisfied

Item CN(C)[C@@H]1C(=O)C(C(N)=O)=C(O)[C@@]2(O)C(=O)C3=C(O)c4c(O)ccc(Cl)c4[C@@](C)(O)[C@H]3C[C@@H]12 : normalized growth beneath 1, strictly?
satisfied

Item Cc1cc(=O)[nH]c(=S)[nH]1 : normalized growth beneath 1, strictly?
satisfied

Item C[n+]1ccccc1/C=N/O : normalized growth beneath 1, strictly?
satisfied

Item O=C(O)C1=CCCNC1 : normalized growth beneath 1, strictly?
satisfied

Item CCCSc1ccc2nc(NC(=O)OC)[nH]c2c1 : normalized growth beneath 1, strictly?
not satisfied

Item CC(C)(C)NC[C@H](O)c1ccc(O)c(CO)c1 : normalized growth beneath 1, strictly?
not satisfied

Item COC1CC2CCC(C)C(O)(O2)C(=O)C(=O)N2CCCCC2C(=O)OC(C(C)CC2CCC(O)C(OC)C2)CC(=O)C(C)/C=C(\C)C(O)C(OC)C(=O)C(C)CC(C)/C=C/C=C/C=C/1C (stereo unspecified) : normalized growth beneath 1, strictly?
satisfied

Item Cc1cc(=O)oc2cc(O)cc(O)c12 : normalized growth beneath 1, strictly?
satisfied

Item CN(C)[C@@H]1C(=O)C(C(=O)NCN2CCCC2)=C(O)[C@@]2(O)C(=O)C3=C(O)c4c(O)cccc4[C@@](C)(O)[C@H]3C[C@@H]12 : normalized growth beneath 1, strictly?
not satisfied

Item COC(=O)c1c(OC)cc2c(c1C)Oc1c(Cl)c(OC(C)=O)c(Cl)c(C)c1C(=O)O2 : normalized growth beneath 1, strictly?
satisfied
